src = patent US20260325540A1

# TESTED ON: SARS-CoV-2 3CLpro (Severe acute respiratory syndrome coronavirus 2, UniProt P0DTD1)
# PROTOCOL TEXT: FRET based protease assay, SARS-CoV-2 3CL
pIC50: −log10 of the molar value.
MEASURED ENDPOINT: pIC50

Answered examples (5):
>>> recorded_measurement("N#C[C@@H]1C[C@@H]2C(=O)NC[C@@H]2/C=C/CC[C@H](NC(=O)C(F)(F)F)C(=O)N2C[C@@H]3CCC[C@@H]3[C@H]2C(=O)N1")
"> 7.00"
>>> recorded_measurement("Cc1nc(C(=O)N[C@H]2CCCC[C@H]3CNC(=O)[C@H]3C[C@@H](C#N)NC(=O)[C@@H]3[C@@H]4[C@H](CN3C2=O)C4(C)C)cs1")
"6.00 to 7.00"
>>> recorded_measurement("CC(C)C[C@@H]1NC(=O)CCCCCC[C@@H]2CNC(=O)[C@@H]2C[C@@H](C=O)NC1=O")
"4.70 to 6.00"
>>> recorded_measurement("CC1(C)[C@@H]2[C@H]3C(=O)N[C@H](C#N)C[C@@H]4C(=O)NC[C@@H]4CCCC[C@H](Nc4nccc(C(F)(F)F)n4)C(=O)N3C[C@@H]21")
"> 7.00"
>>> recorded_measurement("CC(C)(F)C[C@@H]1NC(=O)[C@@H](NC(=O)OC(C)(C)C)CCCC[C@H]2CNC(=O)[C@H]2C[C@@H](C#N)NC1=O")
"6.00 to 7.00"

Now for a further compound.
Request: Which pIC50 value belongs to CC(C)C[C@H]1C(=O)N[C@H](C#N)C[C@@H]2C(=O)NC[C@@H]2CCCC[C@H](NC(=O)C(C)(C)C)C(=O)N1C ?
Result: 6.00 to 7.00
